target: Butyrylcholinesterase (Rattus norvegicus)
MEASUREMENT_LABEL: IC50 (nM)

• c1ccc2c(NCCCCCCCCCCNc3ccncc3)c3c(nc2c1)CCCC3 = 427
• CN(C)CCCCCCCCNc1c2c(nc3ccccc13)CCCC2 = 170
• CN(C)CCCCCCCCCCCCNc1c2c(nc3ccccc13)CCCC2 = 695
• CN(C)CCCCCCCNc1c2c(nc3ccccc13)CCCC2 = 143
• c1ccc2c(NCCCCCCCCNc3c4c(nc5ccccc35)CCCC4)ccnc2c1 = 126
• NCCCCCCCCCNc1c2c(nc3ccccc13)CCCC2 = 687

###

Biological target: Acetylcholinesterase (Rattus norvegicus)
Sequence (P37136 whole entry): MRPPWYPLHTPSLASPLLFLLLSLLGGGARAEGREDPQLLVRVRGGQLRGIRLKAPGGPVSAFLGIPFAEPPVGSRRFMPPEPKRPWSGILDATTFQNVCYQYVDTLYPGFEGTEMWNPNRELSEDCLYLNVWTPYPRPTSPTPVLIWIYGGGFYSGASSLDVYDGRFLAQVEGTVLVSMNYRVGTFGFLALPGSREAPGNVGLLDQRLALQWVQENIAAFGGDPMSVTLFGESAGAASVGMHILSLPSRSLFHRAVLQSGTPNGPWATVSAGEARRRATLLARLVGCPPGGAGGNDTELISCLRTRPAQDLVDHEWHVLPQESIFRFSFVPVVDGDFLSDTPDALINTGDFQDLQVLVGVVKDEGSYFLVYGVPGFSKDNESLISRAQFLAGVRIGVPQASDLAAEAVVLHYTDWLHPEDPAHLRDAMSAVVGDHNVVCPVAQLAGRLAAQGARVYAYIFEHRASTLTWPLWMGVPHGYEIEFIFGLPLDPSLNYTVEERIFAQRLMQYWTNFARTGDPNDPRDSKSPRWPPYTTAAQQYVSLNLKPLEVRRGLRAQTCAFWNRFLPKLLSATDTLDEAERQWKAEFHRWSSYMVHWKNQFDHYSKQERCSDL
pIC50: −log10 of the molar value.
MEASUREMENT_LABEL: pIC50

* c1ccc2c(NCCCCCCCCCNc3ccncc3)c3c(nc2c1)CCCC3 | 7.08
* CN(C)CCCCCCCCCCNc1c2c(nc3ccccc13)CCCC2 | 7.35
* Cc1cccc2c(NCCCCCCCCNc3c4c(nc5ccccc35)CCCC4)c3c(nc12)CCCC3 | 8.11
* c1ccc2c(NCCCCCCCNc3c4c(nc5ccccc35)CCCC4)ccnc2c1 | 8.00
* NCCCCCCCCCCCCNc1c2c(nc3ccccc13)CCCC2 | 6.74
* CN(C)CCCCCCCNc1c2c(nc3ccccc13)CCCC2 | 7.28
* NCCCCCCCCCNc1c2c(nc3ccccc13)CCCC2 | 6.88
* CN(C)CCCCCCCCCCCCNc1c2c(nc3ccccc13)CCCC2 | 6.58
* CN(C)CCCCCCCCCNc1c2c(nc3ccccc13)CCCC2 | 7.15
* Cc1cccc2c(NCCCCCCCNc3c4c(nc5ccccc35)CCCC4)c3c(nc12)CCCC3 | 8.82
* c1ccc2c(NCCCCCCCCCCNc3ccncc3)c3c(nc2c1)CCCC3 | 6.75
* c1ccc2c(NCCCCCCCCNc3c4c(nc5ccccc35)CCCC4)ccnc2c1 | 8.06
* c1ccc2c(NCCCCCCCCNc3ccncc3)c3c(nc2c1)CCCC3 | 7.87
* Nc1ccnc2ccccc12 | 4.29
* NCCCCCCCCCCNc1c2c(nc3ccccc13)CCCC2 | 6.83
* CN(C)CCCCCCCCNc1c2c(nc3ccccc13)CCCC2 | 7.33
* NCCCCCCCCNc1c2c(nc3ccccc13)CCCC2 | 7.05
* c1ccc2c(NCCCCCCCCCCCCNc3ccncc3)c3c(nc2c1)CCCC3 | 6.58
* NCCCCCCCNc1c2c(nc3ccccc13)CCCC2 | 6.50
* c1ccc2c(NCCCCCCCCCNc3c4c(nc5ccccc35)CCCC4)ccnc2c1 | 7.41
* c1ccc2c(NCCCCCCCNc3ccncc3)c3c(nc2c1)CCCC3 | 7.89

###

Parameter IC50, tested on Butyrylcholinesterase (Rattus norvegicus, UniProt Q9JKC1), listed per item.
Sequence (Q9JKC1 whole entry): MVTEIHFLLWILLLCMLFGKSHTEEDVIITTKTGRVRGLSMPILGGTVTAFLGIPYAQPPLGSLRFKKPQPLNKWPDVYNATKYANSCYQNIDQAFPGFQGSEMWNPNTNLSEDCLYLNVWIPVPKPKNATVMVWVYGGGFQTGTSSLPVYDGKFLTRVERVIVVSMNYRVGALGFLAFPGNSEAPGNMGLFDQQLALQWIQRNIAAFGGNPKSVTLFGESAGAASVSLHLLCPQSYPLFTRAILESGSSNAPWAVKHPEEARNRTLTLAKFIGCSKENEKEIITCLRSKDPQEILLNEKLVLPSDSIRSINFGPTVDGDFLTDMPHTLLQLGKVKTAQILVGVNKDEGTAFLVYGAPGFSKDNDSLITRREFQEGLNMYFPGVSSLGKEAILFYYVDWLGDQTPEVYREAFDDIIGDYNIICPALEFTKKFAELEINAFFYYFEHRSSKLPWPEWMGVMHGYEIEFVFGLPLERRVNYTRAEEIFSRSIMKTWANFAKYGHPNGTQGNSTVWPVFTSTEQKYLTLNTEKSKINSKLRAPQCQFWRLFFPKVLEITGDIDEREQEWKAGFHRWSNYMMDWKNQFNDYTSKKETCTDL
MEASUREMENT_LABEL: IC50 (µM)

• c1ccc2c(NCCCCCCCCCNc3c4c(nc5ccccc35)CCCC4)ccnc2c1 = 0.156
• CN(C)CCCCCCCCCNc1c2c(nc3ccccc13)CCCC2 = 0.237
• NCCCCCCCCCCNc1c2c(nc3ccccc13)CCCC2 = 0.682
• NCCCCCCCCCCCCNc1c2c(nc3ccccc13)CCCC2 = 0.791
• c1ccc2c(NCCCCCCCNc3ccncc3)c3c(nc2c1)CCCC3 = 0.302
• c1ccc2c(NCCCCCCCCCNc3ccncc3)c3c(nc2c1)CCCC3 = 0.2
• NCCCCCCCCNc1c2c(nc3ccccc13)CCCC2 = 0.202
• c1ccc2c(NCCCCCCCCNc3ccncc3)c3c(nc2c1)CCCC3 = 0.157
• c1ccc2c(NCCCCCCCCCCCCNc3ccncc3)c3c(nc2c1)CCCC3 = 0.377
• NCCCCCCCNc1c2c(nc3ccccc13)CCCC2 = 0.357
• CN(C)CCCCCCCCCCNc1c2c(nc3ccccc13)CCCC2 = 0.581
• c1ccc2c(NCCCCCCCNc3c4c(nc5ccccc35)CCCC4)ccnc2c1 = 0.11
• Cc1cccc2c(NCCCCCCCCNc3c4c(nc5ccccc35)CCCC4)c3c(nc12)CCCC3 = 0.105
